These measurements were taken from patent US20250382355A1.

# target_or_test_system: SARS-CoV-2 Beta B.1.351 spike on pseudovirus (SARS-CoV-2)
# method_summary: cell-based or functional assay
Could you label it T if measured pseudovirus neutralization IC50 is 3 nM or higher, and F otherwise?

19C10 VHH-Fc (Fc fusion) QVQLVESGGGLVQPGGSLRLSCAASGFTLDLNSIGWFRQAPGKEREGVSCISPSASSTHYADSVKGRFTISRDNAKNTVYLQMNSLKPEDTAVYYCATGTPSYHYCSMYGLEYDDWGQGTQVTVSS
F
1A11 VHH-Fc (Fc fusion) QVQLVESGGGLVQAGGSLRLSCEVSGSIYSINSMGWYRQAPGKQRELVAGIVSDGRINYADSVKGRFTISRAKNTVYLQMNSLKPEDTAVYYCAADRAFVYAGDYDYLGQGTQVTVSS
T

Has 3D4 VHH-Fc (Fc fusion) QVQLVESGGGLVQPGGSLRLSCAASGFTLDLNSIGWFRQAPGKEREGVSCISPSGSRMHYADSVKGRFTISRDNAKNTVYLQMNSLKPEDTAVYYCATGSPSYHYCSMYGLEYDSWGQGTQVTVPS a recorded pseudovirus neutralization IC50 greater than or equal to 3 nM?
F

Has 9B2 VHH-Fc (Fc fusion) QVQLVESGGGLVQPGGSLRLSCAASGFTLDNYAIGWFRQAPGKEREGVSCISSSDGDTQYADSVKGRFTISRDNAKNTVYLQMNSLKPEDTAVYYCAVEKVYARSWFFHLCSELDFGSWGQGTQVTVSS a recorded pseudovirus neutralization IC50 greater than or equal to 3 nM?
T

Has 10B8 VHH-Fc (Fc fusion) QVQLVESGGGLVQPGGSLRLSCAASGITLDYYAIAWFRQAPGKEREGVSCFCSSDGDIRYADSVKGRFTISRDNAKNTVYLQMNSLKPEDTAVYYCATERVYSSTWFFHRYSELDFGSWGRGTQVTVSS a recorded pseudovirus neutralization IC50 greater than or equal to 3 nM?
F

Has 5A6 VHH-Fc (Fc fusion) QVQLVESGGGLAQAGGSLRLSCATSGLTFSMSAMGWFRQAPGNEREFVGVINWNGGSSRYADSVRGRFTISRDNAKNTVYLQMNSLKPEDTGVYYCAADALNIGTGEVNPRLYDYWGQGTQVMVSS a recorded pseudovirus neutralization IC50 greater than or equal to 3 nM?
T

Has 19E10 VHH-Fc (Fc fusion) QVQLVESGGGLVQPGGSLRLSCVASGSTISINSMGWYRQAPGKAREMVATITNDGPIKYADPVKGRFTISRDNPKNTVYLQMNSLKPEDTAVYYCVADRAYWLAGEWEYWGQGTQVTVSS a recorded pseudovirus neutralization IC50 greater than or equal to 3 nM?
T

Has 1E4 VHH-Fc (Fc fusion) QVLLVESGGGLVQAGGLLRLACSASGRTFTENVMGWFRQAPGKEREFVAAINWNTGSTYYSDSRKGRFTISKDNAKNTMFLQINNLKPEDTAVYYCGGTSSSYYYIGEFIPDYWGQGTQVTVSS a recorded pseudovirus neutralization IC50 greater than or equal to 3 nM?
F
